ASSAYED TARGET: T1, TIGIT on TIGIT-over expressing NFAT-Luc/Jurkat effector cells (GenScript reporter cell line) (UniProt Q495A1 22-244, limits assumed)
T1 sequence (looked up): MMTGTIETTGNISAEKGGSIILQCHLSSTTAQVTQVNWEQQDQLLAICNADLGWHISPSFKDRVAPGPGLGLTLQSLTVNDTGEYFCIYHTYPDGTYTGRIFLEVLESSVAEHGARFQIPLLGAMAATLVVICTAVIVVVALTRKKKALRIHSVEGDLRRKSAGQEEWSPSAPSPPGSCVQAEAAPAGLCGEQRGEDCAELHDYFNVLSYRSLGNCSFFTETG
ASSAY DETAILS: cell-based or functional assay
READOUT LABEL: EC50 (µM)
Quick note: give the figure in µM, leave out the unit.

Use the examples below as a reference point.
BINDER	RESULT UNIT	EC50
TIGIT-94 chimeric antibody (antibody, human IgG1, kappa, V domains shown, Full-length chimeric IgG1 kappa) VH: EVKLVESGGGLVKPGGSLKLSCAASGFTFSTYTMSWVRQTPEKRLEWVATISSGGTYTHYPDSVKGRFTISRDNAKNTLYLQMSSLKSEDTAMYYCTRWFLSLYAMDYWGQGTSVTVSS VL: DIVMTQSTSSLSASLGDRVTISCRASQDINNFLNWYQQKPAGTVDLLIYYTSRLHSGVPSRFSGSGSGTDYSLTISNLDQEDIATYFCQQGNTFPYTFGGGTRLEIKR	µM	0.0928
TIGIT-3 chimeric antibody (antibody, human IgG1, kappa, V domains shown, also called 3VH + 3VL) VH: EVQLVESGGGLVQPGGSLKLSCAASGFTFSSYGMSWVRQTPDKRLELVATIKSDGGSTNLPDSVKGRFTISRDNAKNTLHLQMSSLKSEDTAMYYCVRGYFDYWGQGTSVTVSS VL: DIVMTQSHKFMSTSVGDRVSITCKASQDVKTAVAWYQQKPGQSPKLLIYWSSTRHTGVPDRFTGSRSLTDHTLTISSVQAEDLALYYCQQYYSTPYTFGGGTKLELKR	µM	0.00277
TIGIT-63 chimeric antibody (antibody, human IgG1, kappa, V domains shown, Full-length chimeric IgG1 kappa) VH: DVQLVESGGGLVQPGGSLSLSCAASGFTFTDYYMNWVRQPPGKALEWLGFIRNKANGYTTEYSASVKGRFTISRDNSQSILYLQMNALRAEDSATYYCARSTAWYFDVWGTGTTLTVSS VL: DIQMTQSPASLSASVGGTVTITCRASEHIYSYLAWYQQKQGKSPQLLVYNAKTLAEGVPSRFSGSGSGTQFSLKINSLQPKDFGSYYCQHHYGNPLTFGAGTKLELKR	µM	0.0468

// lookup EC50 for TIGIT-15 chimeric antibody (antibody, human IgG1, kappa, V domains shown, Full-length chimeric IgG1 kappa) VH: DVQLVESGGGLVQPGGSLKLSCAASGFTFSSYGMSWVRQTPDRRLELVATINNNGGSTYYPDSVKGRFTISRDNARNTLYLQMSSLKSEDTAMYYCATRTGTEILGFDFWGQGTTLTVSS VL: DIVLTQSHKFMSTSLGDRVSITCKASQDVSTAVAWYQQKPGQSPKLLIYWASSRHTGVPDRFTGSRSGPDYTLTISSVQAEDLALYYCQQQYSTPWTFGGGTKLEIKR
0.0174

// same read-out, input: TIGIT-6 chimeric antibody (antibody, human IgG1, kappa, V domains shown, also called 6VH + 6VL) VH: QVQLKQSGPELVKPGASVKISCKTSGYTITENTMHWVKQSHGKSLEWIGGINPNNGGTSYNQQFKGKATLTVDKSSSTAYMELRSLTSEDSAVYYCTRSSYYRYDLDYWGQGTTVTVSS VL: DIQMTQSHKFMSTSVGDRVSITCKASQDVKTALAWYQQKPGQSPKLLIYSASYRYTGVPDRFTGSGSGTDFTFTISSVQAEDLAVYYCHQHYTTPWTFGGGTKLEIKR
0.00942

The values you see were collected from patent US20260139048A1.
